System: ACHN renal
experiment.summary: NCI-60 one-dose screen, 48 h
test.context: 10 µM unless noted
Compounds without any hit were thinned out: in the full panel of roughly 83,000, 20% have a hit. Active and inactive are the calls of the source. Rule for the calls: active = growth percent below 10; inactive = the rest.
Hello, when you answer, please use one of the following outcomes: yes = active, no = inactive

Before answering, review these 5 worked examples.
CCCc1cc(=O)n2c(C(=O)Nc3cccc(C(=O)OCC)c3)c(C(=O)Nc3ccc(F)cc3)sc2n1; no
C=C1c2nc3ccccc3n2C=C(c2ccc(OC)cc2)N1Cc1ccccc1; no
Cn1c(=O)c2c(nc3n(-c4ccc(Cl)cc4Cl)c(Sc4nc(-c5ccccc5)c(C#N)c(=O)[nH]4)cn23)n(C)c1=O; no
C=C1C(=O)O[C@H]2[C@H]1CC/C(COC(=O)NCc1ccc(OC)c(OC)c1)=C\CC[C@@]1(C)O[C@@H]21; yes
O=C1c2ccccc2OC=C(c2ccccc2)N1CCCCNc1ccc(S(=O)(=O)Nc2ncccn2)cc1; no

Tell me the assay call for "Brc1ccc(-c2csc(Nc3ccccn3)n2)cc1" please. no

One more molecule: "O=c1nc2oc3ccc4ccccc4c3cc-2s1" no

One more molecule: "O=C(N(c1ccccc1)c1ccccc1)n1ccc2nc(Cl)nc(Cl)c21" no
